Test: Pharmacokinetic profile in cannulated rats (oral dosing)
Assay type: in vivo
Settings: rat, oral dose 3 mg/kg, plasma; read-out: AUC0-last (po)
readoutLabel: AUC(0-t) (ng·h/mL)
Numbers only, in ng·h/mL.

**Q:** Given COc1ccc(C(=O)Nc2c(Cl)cncc2Cl)c2ccc(C(F)(F)F)nc12 [Free base] , respond with its AUC(0-t).
**A:** 6860

* * *

Experiment: Solubility in water at pH 7
Type: physicochemical
Conditions: aqueous buffer, read-out: solubility
readoutLabel: solubility (µg/mL)
Numbers only, in µg/mL.

**Q:** Given COc1ccc(C(=O)Nc2c(Cl)cncc2Cl)c2ccc(C(F)(F)F)nc12 [Free base] , respond with its solubility.
**A:** 2
